Test system: RPMI-8226 leukemia
Assay: NCI tumour cell line growth inhibition, 48 h

| Smiles Code | TGI |
| --- | --- |
| CSc1nc(-c2cc3ccccc3o2)cc(-c2ccc(Cl)cc2)c1C#N | > 100 µM |
| O=C1CC[C@H](NC(=O)Cc2ccccc2)C(=O)N1 | > 1250 µM |
| CC(C)(C)c1ccc(O)c(CN(Cc2c(O)ccc3ccccc23)C2CCCCC2)c1 | > 100 µM |
| OCCCC(O)(c1ccccc1)c1ccccc1 | > 100 µM |

---

Tested on: NCI-H522 lung
Experiment: NCI tumour cell line growth inhibition, 48 h
Experimental Readout: TGI

| Compound | Recorded Result |
| --- | --- |
| O=C1/C(=C/c2ccco2)N=C(c2ccccc2)N1c1ccc(S(=O)(=O)Nc2nccs2)cc1 | > 100 µM |
| O=[N+]([O-])c1ccc2c(c1)c1nn2CCCCOc2nn(c3ccc([N+](=O)[O-])cc23)CCCCO1 | > 100 µM |
| CC(=O)OCC1OC(N2C(=O)NC(=O)C3C=C4CCCCC4=CC32)C(OC(C)=O)C1OC(C)=O (stereo not given) | > 100 µM |
| CN=c1ssc(/N=C(\SC)N(C)C)[n+]1C | > 100 µM |
| CCc1n[nH]c(=O)n1/N=C/c1ccc(/C=N/n2c(CC)n[nH]c2=O)cc1 | > 100 µM |
| COc1ccc(C(C)c2cc3c(cc2O)OCO3)cc1 (stereo not given) | 26 µM |
| c1csc(-c2cc(-c3ccsc3)c(-c3ccsc3)s2)c1 | > 100 µM |
| O=C(CC1(O)C(=O)Nc2c(Cl)cc(Cl)cc21)c1ccc(Br)cc1 (stereo not given) | 32.4 µM |
| COc1ccc2c(c1)n([O-])c1cc(C#N)ccc1[n+]2=O | 27.7 µM |
| O=C(Cc1n[nH]c(=O)c2ccccc12)OCc1c(Cl)cccc1Cl | > 100 µM |

---

System: KM12 colon
Assay: NCI tumour cell line growth inhibition, 48 h
Experimental Readout: TGI

| Smiles Code | Target Or System | Experimental Readout | Recorded Result |
| --- | --- | --- | --- |
| Cc1ncc([N+](=O)[O-])n1CCn1ccnc1[N+](=O)[O-] | KM12 colon | TGI | > 100 µM |
| CCCCCC(=O)Nc1n[nH]nc1C#N | KM12 colon | TGI | > 100 µM |
| COc1nc(N)c(N=O)c(OCc2ccccc2)n1 | KM12 colon | TGI | > 10 µM |
| CN=c1ssc(/N=C(\SC)N(C)C)[n+]1C | KM12 colon | TGI | > 100 µM |

---

Measured TGI values are reported for all entries that follow.
System: HS 578T breast
Test: NCI tumour cell line growth inhibition, 48 h
Where a SMILES comes first, the peptide text is derived from it. Bridges are numbered along the chain shown (N, C = ends). [ ]: non-standard residue; d: D form. The star is where a group is joined. ξ: configuration not given here. X26 = O=C(/C=C/C=C/C=C/C=C/C=C/C(=O)*)NC1=C(O)CCC1=O; Pro(4R-Me) = C[C@H]1CN[C@H](C(=O)O)C1; NMeA = CN[C@@H](C)C(=O)O; ξF = NC(Cc1ccccc1)C(=O)O; ξA = CC(N)C(=O)O
Experimental Readout: TGI

| Compound | Recorded Result |
| --- | --- |
| C=C(Cl)C(Cl)(CBr)CCCC(C)(C)Cl (stereo not drawn) | 12.7 µM |
| C=C1CC2(CC(c3ccccc3OC)OC(c3ccccc3OC)C2)OC1=O (stereo not drawn) | 4.9 µM |
| Cc1ccc(N=C2SC(=S)N(CCC[N+](C)(C)C)C2=Nc2ccc(C)cc2)cc1 | 24.6 µM |
| C/C=C(/C)C(=O)O[C@H]1CCN2CC=C(COC(=O)[C@@](O)([C@H](C)OC)C(C)(C)O)[C@H]12 | > 100 µM |
| COc1cc(C(=O)O)ccc1OS(=O)(=O)O | > 100 µM |
| CC(C)=CCNc1ncnc2c1c(C#N)cn2C1OC(CO)C(O)C1O (stereo not drawn) | > 100 µM |
| CC1NC(=O)[C@H](C)N(C)C(=O)[C@@H]2CCCN2C(=O)[C@@H](NC(=O)C(Cc2ccccc2)NC(=O)/C=C/C=C/C=C/C=C/C=C/C(=O)NC2=C(O)CCC2=O)COC(=O)[C@@H]2C[C@@H](C)CN2C1=O (stereo partly drawn) (X26-[ξF]SP[NMeA][ξA][Pro(4R-Me)]; ester 2-C) | > 100 µM |
| O=C(Nc1ccc(Cl)cc1)c1cc2c(cc1Cl)SC(NNCCO)=NS2(=O)=O | > 100 µM |
| ClCc1ccccc1Cn1cnc2c(Cl)nc(Cl)nc21 | 3.55 µM |
| Cc1cn(CCCC2=NCCCN2)c(=O)[nH]c1=O | > 100 µM |
| O=C(Cc1n[nH]c(=O)c2ccccc12)OCc1c(Cl)cccc1Cl | > 100 µM |
| CC[N+](CC)=c1cc2oc3cc(N(C)C)ccc3nc-2cc1C | 64.2 µM |
| CC(=O)NNc1nc(C)c(C(=O)/C=C/C=C/c2ccccc2)s1 | > 100 µM |
